# experimental system: Dyrk2 (Homo sapiens, UniProt Q92630)
# Construct: made in house; host or cells: Escherichia coli BL21(DE3) with pRARE; plasmid pGEX-2TK-Dyrk2 (gift from W. Becker, Aachen)
# Sequence (Q92630 whole entry): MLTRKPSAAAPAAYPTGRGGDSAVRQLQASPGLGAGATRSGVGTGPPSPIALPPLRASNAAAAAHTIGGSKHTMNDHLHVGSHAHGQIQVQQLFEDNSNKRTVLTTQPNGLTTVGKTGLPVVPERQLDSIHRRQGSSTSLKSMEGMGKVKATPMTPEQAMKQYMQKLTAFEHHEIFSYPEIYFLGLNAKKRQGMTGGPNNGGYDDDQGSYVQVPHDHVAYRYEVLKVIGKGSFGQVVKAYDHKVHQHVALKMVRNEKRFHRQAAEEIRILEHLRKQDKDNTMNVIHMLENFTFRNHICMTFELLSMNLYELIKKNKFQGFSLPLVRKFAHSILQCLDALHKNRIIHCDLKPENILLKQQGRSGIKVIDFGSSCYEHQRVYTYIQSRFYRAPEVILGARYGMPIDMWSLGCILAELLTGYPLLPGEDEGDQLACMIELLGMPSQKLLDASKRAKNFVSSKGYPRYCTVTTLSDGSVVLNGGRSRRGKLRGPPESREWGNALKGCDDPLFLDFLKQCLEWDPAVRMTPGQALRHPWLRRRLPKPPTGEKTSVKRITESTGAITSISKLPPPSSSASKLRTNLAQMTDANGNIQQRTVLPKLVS
# assay name: Dyrk2 kinase assay (32P-ATP, Woodtide)
# Type: biochemical
# run conditions: IC50 Dyrk2, 100 µM ATP
endpoint label: pIC50
Give only the number. pIC50 is defined as minus log10 of concentration in molar units.

Req: Give the value of pIC50 reported for the following: COc1ccc2c(c1)[nH]c1c(C)nccc12 [Harmine, harmine, reference compound]
Resp: 5.52

====

Each item that follows carries a reported CLhep predicted at 0.5 µM.
# assay name: Metabolic Stability Assay
# run conditions: male, Sprague-Dawley, rat, liver microsomes
Quick reminder: number only, in mL/min/kg, skip the unit.

Solved entries (count: 2):
Cn1cc(-c2csc(-c3cccnc3)c2)cn1 [Compound 30] :: 34
c1cncc(-c2csc(-c3cncs3)c2)c1 [Compound 48] :: 47

Consider now this further compound.
Req: Give the value of CLhep predicted at 0.5 µM reported for the following: c1cncc(-c2cc(-c3cncs3)cs2)c1 [Compound 29]
Resp: 49
